Values from PubChem BioAssay (EPA / NIEHS)

Read-out: Interleukin-1 alpha (IL1a), IL1A (gene 3552)
Assay: BSK_KF3CT_IL1a: BioMAP Diversity Plus: KF3CT Assay for Interleukin-1 alpha (IL1a) Biomarker Activity (AID 2283070)
Settings: primary human keratinocytes with fibroblasts; actives raise or lower the signal
Active and inactive are the calls of the source. Rule for the calls: active = hit-call score of the fitted dose curve at least 0.9, where 1 is the maximum; inactive = score below 0.9.
Please answer using one outcome listed in active, inactive

For orientation, consider the following solved cases.
[[record]]
compound = "CCCCCCCC(=O)O"
class_name = "inactive"

[[record]]
compound = "CC(O)CO (stereo not given)"
class_name = "inactive"

[[record]]
compound = "c1ccc2c(c1)Cc1ccccc1-2"
class_name = "inactive"

[[record]]
compound = "CC[C@H](c1ccc(O)cc1)[C@@H](CC)c1ccc(O)cc1"
class_name = "active"


## Input Please share the test call associated with CC(C)(C)c1cccc(C(C)(C)C)c1O .
## Output active
